Target: SHP2 (Homo sapiens, UniProt Q06124)
Construct: the catalytic domains of SHP1 and SHP2 were expressed and purified as (His)6-fusion proteins; (His)6
Sequence (Q06124 247-517 limits assumed): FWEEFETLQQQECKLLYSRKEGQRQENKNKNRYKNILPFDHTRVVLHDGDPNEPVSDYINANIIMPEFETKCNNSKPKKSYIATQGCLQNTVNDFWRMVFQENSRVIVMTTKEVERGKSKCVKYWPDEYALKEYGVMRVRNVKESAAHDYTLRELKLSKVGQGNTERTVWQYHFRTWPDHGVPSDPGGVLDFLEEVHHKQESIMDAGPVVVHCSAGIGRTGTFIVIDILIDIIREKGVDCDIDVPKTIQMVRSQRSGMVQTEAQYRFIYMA
Assay: Phosphatase panel, pNPP assay
Conditions: 2 mM pNPP; read-out: Inhibition Potency, IC50
READOUT_NAME: IC50 (µM)
Answers are plain numbers, in µM.

Quick one: IC50 for NC(=O)C(Cc1ccc(C(F)(F)P(=O)(O)O)cc1)NC(=O)C(CC(=O)O)NC(=O)Cc1ccc(C(F)(F)P(=O)(O)O)cc1 (stereo not shown) ? 10
